Data provenance: ChEMBL document CHEMBL5154800

Each record here notes measured inhibition of growth at 0.2 µM.
test system: Pfeiffer; assay: Antiproliferative activity against human Pfeiffer cells assessed as growth inhibition at 0.2 uM measured after 72 hrs by MTT assay; assay type: functional; details: read-out: GI
Your reply should be a number followed by the unit it is expressed in.

Task: Tell me the measured inhibition of growth at 0.2 µM of CC(C)(C)NC(=O)CC[C@H](NC(=O)CCNC(=O)/C(C#N)=C/c1ccc(Cl)cc1)C(=O)N[C@@H](Cc1ccc2ccccc2c1)C(=O)NCc1cccc2ccccc12 , please.
Output: 28%

Task: Tell me the measured inhibition of growth at 0.2 µM of Cc1ccc(CNC(=O)[C@H](Cc2c[nH]c3ccccc23)NC(=O)[C@H](CCC(=O)NC(C)(C)C)NC(=O)CCNC(=O)CCl)cc1 , please.
Output: 28%

Task: Tell me the measured inhibition of growth at 0.2 µM of Cc1ccc(CNC(=O)[C@H](Cc2ccccc2)NC(=O)[C@H](CCC(=O)NC(C)(C)C)NC(=O)CCNC(=O)/C(C#N)=C/C(C)C)cc1 , please.
Output: 27%

Task: Tell me the measured inhibition of growth at 0.2 µM of Cc1ccc(CNC(=O)[C@H](Cc2ccccc2)NC(=O)[C@H](CCC(=O)NC(C)(C)C)NC(=O)[C@H](CNC(=O)CCl)NC(=O)CCCc2ccccc2)cc1 , please.
Output: 23%
